meta.source: paper PMC6152211

# test: Herbal drug pharmacokinetic interaction study of sorafenib in rat plasma (Part A)
# Type: in vivo, Male Sprague-Dawley rats
# condition_description: male, Sprague-Dawley, rat, plasma, po, 10 mg/kg, Group A4: LDXGT formulation 2 g/kg/day p.o. for 5 consecutive days, then single sorafenib 10 mg/kg p.o.; rat plasma; mean ± SD, n = 6
value_kind: half-life (h)
Kindly provide the numeric value in h only, without the unit symbol.

Return the recorded half-life value; entry: CNC(=O)c1cc(Oc2ccc(NC(=O)Nc3ccc(Cl)c(C(F)(F)F)c3)cc2)ccn1 [sorafenib, Sorafenib]
9.9

* * *

# test: Phase I CYP3A4 metabolism study: sorafenib pharmacokinetics after pretreatment with grapefruit juice or ketoconazole (Part B)
# condition_description: male, Sprague-Dawley, in vivo, po, 10 mg/kg
value_kind: bioavailability (%)
Report the figure in % without appending any unit label.

Please look at this molecule and report its bioavailability: CNC(=O)c1cc(Oc2ccc(NC(=O)Nc3ccc(Cl)c(C(F)(F)F)c3)cc2)ccn1
52

* * *

# test: Herbal drug pharmacokinetic interaction study of sorafenib in rat plasma (Part A)
# Assay type: in vivo, Male Sprague-Dawley rats
# condition_description: male, Sprague-Dawley, rat, plasma, po, 10 mg/kg, Group A4: LDXGT formulation 2 g/kg/day p.o. for 5 consecutive days, then single sorafenib 10 mg/kg p.o.; rat plasma; mean ± SD, n = 6
value_kind: Cmax (ng/mL)
Provide the reading as a plain figure in ng/mL.

Return Cmax for the following compound: CNC(=O)c1cc(Oc2ccc(NC(=O)Nc3ccc(Cl)c(C(F)(F)F)c3)cc2)ccn1
4800

* * *

# test: Herbal drug pharmacokinetic interaction study of sorafenib in rat plasma (Part A)
# Type: in vivo, Male Sprague-Dawley rats
# condition_description: male, Sprague-Dawley, rat, plasma, iv, 3 mg/kg, Group A1: sorafenib 3 mg/kg, i.v.; rat plasma; mean ± SD, n = 6
value_kind: half-life (h)
Write the answer as a number in h, unit excluded.

Please list half-life recorded for the compound CNC(=O)c1cc(Oc2ccc(NC(=O)Nc3ccc(Cl)c(C(F)(F)F)c3)cc2)ccn1
8.32

* * *

# test: Herbal drug pharmacokinetic interaction study of sorafenib in rat plasma (Part A)
# Assay type: in vivo, Male Sprague-Dawley rats
# condition_description: male, Sprague-Dawley, rat, plasma, po, 10 mg/kg, Group A2: sorafenib 10 mg/kg, p.o. alone; rat plasma; mean ± SD, n = 6
# Excerpt: The jugular-catheterized rats were randomly divided into four groups, Groups A1–A4, as described above. […] […] […] Data from these samples were used to construct pharmacokinetic profiles by plotting drug concentrations versus times.
value_kind: Cmax (ng/mL)
Numeric only. Scale: ng/mL

Name the recorded Cmax of the compound listed here: CNC(=O)c1cc(Oc2ccc(NC(=O)Nc3ccc(Cl)c(C(F)(F)F)c3)cc2)ccn1 [sorafenib, Sorafenib]
5000
